tested on: MCF10A; assay: 5+ nucleoli phenotype percent effect (relative to siNT 0% and siKIF11 100%); higher = more cells with five or more nucleoli; settings: 20 nM; 72 h
// reported 5+ nucleoli phenotype percent effect per item
Quick note: give the figure in %, leave out the unit.

Reference set (2 entries):
{"columns": ["Input sequence", "5+ nucleoli phenotype percent effect (%)"],
 "data": [
  ["UAAAAACUGCAAUUACUUUUA [hsa-miR-548aj-3p]", 35.3],
  ["AGGAAGCCCUGGAGGGGCUGGAG [hsa-miR-671-5p]", -27.7]
]}

If you can, please state the reported 5+ nucleoli phenotype percent effect value of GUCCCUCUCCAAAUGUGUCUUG [hsa-miR-642a-5p] .
55.6

Can you share its 5+ nucleoli phenotype percent effect? I mean this sequence: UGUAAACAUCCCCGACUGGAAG [hsa-miR-30d-5p]
30.3

Source: the supplement of paper PMC10899765
